- test-target: hBPGM (Homo sapiens)
- experiment-notes: BPGM synthase assay
- Type: biochemical
- condition-summary: Table 6; read-out: huBPGM: synthase Enzyme IC50
pIC50: −log10 of the molar value.
measured-parameter: pIC50

* COCc1nc(C)c(-c2cccc(-c3cc(F)c4nn[nH]c4c3F)n2)s1 [Example 34] | 6.60
* Cc1nc(COCC(C)(C)O)sc1-c1cccc(-c2cc(F)c(O)c(F)c2F)n1 | 6.39
* Cc1nc(C)c(-c2cccc(-c3cc(F)c4nn[nH]c4c3F)n2)s1 | 6.47

* * *

- test-target: hBPGM (Homo sapiens, UniProt P07738)
- Sequence (P07738 whole entry): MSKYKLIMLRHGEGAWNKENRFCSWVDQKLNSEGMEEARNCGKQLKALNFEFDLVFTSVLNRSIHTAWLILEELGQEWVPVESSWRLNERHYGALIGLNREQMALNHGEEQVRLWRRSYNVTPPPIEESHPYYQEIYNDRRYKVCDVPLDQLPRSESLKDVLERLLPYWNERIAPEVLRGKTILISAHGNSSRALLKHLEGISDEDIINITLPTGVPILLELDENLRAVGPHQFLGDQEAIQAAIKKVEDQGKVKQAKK
- experiment-notes: BPGM synthase assay
- Format: biochemical
- condition-summary: Table 6; read-out: huBPGM: synthase Enzyme IC50
measured-parameter: IC50 (nM)

• Cc1cnc(OCc2nc(C)c(-c3cccc(-c4cc(F)c5nn[nH]c5c4F)n3)s2)nc1 = 17

[A] COC(=O)NCc1nc(C)c(-c2csc(-c3cc(F)c(O)c(F)c3F)n2)s1
[B] Cc1nc(Cc2ccccn2)sc1-c1cccc(-c2ccc(C(=O)NS(=O)(=O)c3ccccc3)cc2)c1
[C] Cc1nc(CNC(=O)N(C)C)sc1-c1csc(-c2cc(F)c3[nH]nnc3c2)n1
[D] Cc1nc(COc2ccccn2)sc1-c1cccc(-c2cc(F)c3nn[nH]c3c2F)n1
[in] Hey, quick one: sort these by IC50, low to high? Respond with the label ranking, as requested.
[out] D, A, B, C
